pIC50: −log10 of the molar value.
The entries below pair molecules with pIC50 values for Xanthine dehydrogenase/oxidase (Bos taurus, UniProt P80457), as found in several publications.
Threshold check on pIC50: at or above 8 gives Criterion met, strictly below gives Criterion not met.

Solved entries (count: 4):
{"columns": ["TEST SMILES", "CLASS"],
 "data": [
  ["Cc1ccn2c(-c3ccc(C(=O)O)cc3)cc(C#N)c2c1Cl", "Criterion met"],
  ["Cc1ccsc1-c1nn(-c2ccc(C(=O)O)cc2)cc1C#N", "Criterion met"],
  ["Cc1nc(-c2cc(Cl)c(OCCC(C)C)c(Cl)c2)sc1C(=O)O", "Criterion met"],
  ["Cc1ccn2c(-c3cnc(C(=O)O)c(O)c3)cc(C#N)c2c1F", "Criterion met"]
]}

Ask: Hi, just wondering whether CC(C)(O)c1ccn2c(-c3ccc(C(=O)O)cc3)cc(C#N)c2c1 shows pIC50 of 8 or higher.
Reply: Criterion met

Ask: Check if pIC50 >= 8 (inclusive). Item: N#Cc1cn(-c2ccc(C(=O)O)c(O)c2)c2cc(Cl)c(F)cc12
Reply: Criterion met

Ask: Threshold query (pIC50 >= 8) on N#Cc1ccn2c(-c3ccc(C(=O)O)c(O)c3)cc(C#N)c2c1
Reply: Criterion met

Ask: Could you verify whether the entry Cc1ccc(-c2cn(-c3ccc(C(=O)O)cc3)cc2C#N)cc1 shows pIC50 of no less than 8?
Reply: Criterion met

Ask: Decide: pIC50 of Cc1nc(-c2ccc(OCC(C)C)c(C=O)c2)sc1C(=O)O >= 8?
Reply: Criterion met

Ask: Has N#Cc1cc(-c2ccc(C(=O)O)c(F)c2)n2ccccc12 a recorded pIC50 greater than or equal to 8?
Reply: Criterion not met

Ask: Does the molecule N#Cc1cc(-c2ccc(C(=O)O)cc2)n2cc(F)ccc12 have recorded pIC50 that is 8 or more?
Reply: Criterion not met

----------
Ok so here's the combined literature set: IC50 for Xanthine dehydrogenase/oxidase (Bos taurus).
Kindly provide the numeric value in nM only, without the unit symbol.

Ask: Lab note: record IC50 of Cc1nc(-c2cc(Cl)c(O)c(Cl)c2)sc1C(=O)O tested on Xanthine dehydrogenase/oxidase (Bos taurus).
Reply: 26

Ask: Output reported IC50 of the molecule N#Cc1cn(-c2ccc(C(=O)O)cc2)c2ccc(Cl)cc12 on Xanthine dehydrogenase/oxidase (Bos taurus).
Reply: 26.7

Ask: Fill in: IC50 on Xanthine dehydrogenase/oxidase (Bos taurus), entry CCCCN(C)c1ccc(-c2ccc(C(=O)O)s2)cc1C#N
Reply: 4.1

Ask: Specify IC50 for Cc1nc(-c2ccc(OCC(C)(C)C)c(C(F)(F)F)c2)sc1C(=O)O , system Xanthine dehydrogenase/oxidase (Bos taurus).
Reply: 2.9

Ask: Jot down IC50 (Xanthine dehydrogenase/oxidase (Bos taurus)) of N#Cc1cn(-c2ccc(C(=O)O)c(O)c2)c2cc(O)ccc12 .
Reply: 5.1

Ask: Send back Xanthine dehydrogenase/oxidase (Bos taurus) IC50 of N#Cc1cn(-c2ccc(C(=O)O)cc2)cc1-c1ccc(Cl)s1 only.
Reply: 5.86

Ask: Please look at CC(C)CSc1ccc(-c2ccc(C(=O)O)s2)cc1C#N and tell me its recorded IC50 on Xanthine dehydrogenase/oxidase (Bos taurus).
Reply: 2.9

Ask: # lookup: Xanthine dehydrogenase/oxidase (Bos taurus) IC50, key = N#Cc1cn(-c2ccc(C(=O)O)cc2)c2cccc(Cl)c12
Reply: 50.5
